Cited source for all entries: patent EP4725957A1

System: Escherichia coli ATCC BAA-2523
Format: cell-based
Details: ATCC BAA-2523
Bridge positions count the residues as written; N and C are the ends. Square brackets hold non-standard residues; d marks the D form. Peptide text beside a SMILES is read from it. * marks the point of attachment. Nonanoyl = CCCCCCCCC(=O)*; X1 = CC[C@H](C)CCCCC(=O)*; dDab = NCC[C@@H](N)C(=O)O; dDap = NC[C@@H](N)C(=O)O; Dab = NCC[C@H](N)C(=O)O; Dap = NC[C@H](N)C(=O)O
Below, each entry is listed alongside its reported MIC.

{"columns": ["compound", "study_system", "readout_units", "MIC"],
 "data": [
  ["CCCCCCCCC(=O)N[C@@H](CCN)C(=O)N[C@H](C(=O)N[C@H](CCN)C(=O)N[C@H]1CCNC(=O)[C@H]([C@@H](C)O)NC(=O)[C@H](CCN)NC(=O)[C@H](CCN)NC(=O)[C@H]([C@@H](C)O)NC(=O)[C@@H](Cc2ccccc2)NC(=O)[C@H](CCN)NC1=O)[C@@H](C)O [Compound 15] (Nonanoyl-[Dab]T[dDab][Dab][Dab][dF]T[Dab][Dab]T; lactam 4-C)", "Escherichia coli ATCC BAA-2523", "µg/mL", 0.06],
  ["CC[C@H](C)CCCCC(=O)N[C@@H](CN)C(=O)N[C@H](C(=O)N[C@H](CCN)C(=O)N[C@H]1CCNC(=O)[C@H]([C@@H](C)O)NC(=O)[C@H](CCN)NC(=O)[C@H](CCN)NC(=O)[C@H](CC(C)C)NC(=O)[C@@H](Cc2ccccc2)NC(=O)[C@H](CCN)NC1=O)[C@@H](C)O [Compound 91] (X1-[Dap]T[dDab][Dab][Dab][dF]L[Dab][Dab]T; lactam 4-C)", "Escherichia coli ATCC BAA-2523", "µg/mL", 0.03],
  ["CCCCCCCCC(=O)N[C@@H](CCN)C(=O)N[C@H](C(=O)N[C@H](CN)C(=O)N[C@H]1CCNC(=O)[C@H]([C@@H](C)O)NC(=O)[C@H](CCN)NC(=O)[C@H](CCN)NC(=O)[C@H]([C@@H](C)O)NC(=O)[C@@H](Cc2ccccc2)NC(=O)[C@H](CCN)NC1=O)[C@@H](C)O [Compound 5] (Nonanoyl-[Dab]T[dDap][Dab][Dab][dF]T[Dab][Dab]T; lactam 4-C)", "Escherichia coli ATCC BAA-2523", "µg/mL", 0.06]
]}

* * *

Below, each entry is listed alongside its reported MIC.
System: Acinetobacter baumannii ABA19-1
Format: cell-based
Conditions: ABA19-1
Bridge positions count the residues as written; N and C are the ends. Square brackets hold non-standard residues; d marks the D form. Peptide text beside a SMILES is read from it. * marks the point of attachment. Dab(CH2SO3H) = N[C@@H](CCNCS(=O)(=O)O)C(=O)O; Heptanoyl(6-Me) = CC(C)CCCCC(=O)*; dDab = NCC[C@@H](N)C(=O)O; Dab = NCC[C@H](N)C(=O)O; Dap = NC[C@H](N)C(=O)O

{"columns": ["compound", "MIC (µg/mL)"],
 "data": [
  ["CC(C)CCCCC(=O)N[C@@H](CN)C(=O)N[C@H](C(=O)N[C@H](CO)C(=O)N[C@H]1CCNC(=O)[C@H]([C@@H](C)O)NC(=O)[C@H](CCN)NC(=O)[C@H](CCN)NC(=O)[C@H]([C@@H](C)O)NC(=O)[C@@H](Cc2ccccc2)NC(=O)[C@H](CCN)NC1=O)[C@@H](C)O [Compound 52] ({Heptanoyl(6-Me)}-[Dap]T[dS][Dab][Dab][dF]T[Dab][Dab]T; lactam 4-C)", 0.25],
  ["CC(C)CCCCC(=O)N[C@@H](CCN)C(=O)N[C@H](C(=O)N[C@H](CO)C(=O)N[C@H]1CCNC(=O)[C@H]([C@@H](C)O)NC(=O)[C@H](CCN)NC(=O)[C@H](CCN)NC(=O)[C@H]([C@@H](C)O)NC(=O)[C@@H](Cc2ccccc2)NC(=O)[C@H](CCNCS(=O)(=O)O)NC1=O)[C@@H](C)O [Compound 109] ({Heptanoyl(6-Me)}-[Dab]T[dS][Dab][Dab(CH2SO3H)][dF]T[Dab][Dab]T; lactam 4-C)", 0.25],
  ["CC(C)CCCCC(=O)N[C@@H](CCN)C(=O)N[C@H](C(=O)N[C@H](CCN)C(=O)N[C@H]1CCNC(=O)[C@H]([C@@H](C)O)NC(=O)[C@H](CCN)NC(=O)[C@H](CCN)NC(=O)[C@H]([C@@H](C)O)NC(=O)[C@@H](Cc2ccccc2)NC(=O)[C@H](CCN)NC1=O)[C@@H](C)O [Compound 12] ({Heptanoyl(6-Me)}-[Dab]T[dDab][Dab][Dab][dF]T[Dab][Dab]T; lactam 4-C)", 0.06]
]}
